# measured-on: Lysosomal acid glucosylceramidase (Homo sapiens)
# Sequence (P04062 whole entry): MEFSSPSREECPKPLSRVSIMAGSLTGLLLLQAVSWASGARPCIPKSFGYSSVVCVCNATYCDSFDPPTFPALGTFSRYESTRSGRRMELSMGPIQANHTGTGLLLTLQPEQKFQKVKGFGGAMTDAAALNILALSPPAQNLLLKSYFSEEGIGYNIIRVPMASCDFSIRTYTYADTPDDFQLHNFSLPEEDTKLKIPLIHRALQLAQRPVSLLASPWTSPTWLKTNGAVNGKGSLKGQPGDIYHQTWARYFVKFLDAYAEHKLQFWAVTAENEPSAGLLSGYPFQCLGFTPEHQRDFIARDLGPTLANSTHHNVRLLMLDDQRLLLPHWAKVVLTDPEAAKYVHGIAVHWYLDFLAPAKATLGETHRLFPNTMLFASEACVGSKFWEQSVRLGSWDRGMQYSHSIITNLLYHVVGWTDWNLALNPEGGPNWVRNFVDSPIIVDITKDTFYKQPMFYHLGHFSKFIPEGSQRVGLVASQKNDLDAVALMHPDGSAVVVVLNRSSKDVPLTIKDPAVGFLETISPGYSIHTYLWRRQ
endpoint-label: pIC50
The value called pIC50 is obtained by taking minus log10 of the concentration in mol/L.

Requested read-out: pIC50. Entry: CN(c1ccc(C(=O)Nc2nccs2)cc1)S(=O)(=O)c1ccccc1
4.46
